compounds and their reported Score of combination 1% + 1%
experiment: Malodor evaluation panel, cat urine on cotton swatches; conditions: remaining cat urine malodor, scale 1-7; ketone 1% + citric acid 1% in spray; average of 14
In your answer, state the number alone without any accompanying words.

Known results for compounds:
CC(=O)/C=C/C1C(C)=CCC(C)C1(C)C (stereo not drawn) [α-irone] | 3.70
CCC(=O)/C=C/C1=C(C)CCCC1(C)C [methyl β-ionone] | 3.40
CCC(C)(C)C1CCC(=O)CC1 [4-tert-pentylcyclohexanone] | 2.90
CC(=O)/C=C/C1=C(C)CCCC1(C)C [β-ionone] | 3.10
CC(=O)CCC1=C(C)CCCC1(C)C [dihydro-β-ionone] | 2.50

Next compound, please.
Item CC(=O)/C=C/C1C(C)=CCCC1(C)C (stereo not drawn) [α-ionone] : provide Score of combination 1% + 1%
3.10

Data credit: patent US9114180B2
